assay: APR_HepG2_P-H2AX_72hr: Apredica 72-hour HepG2 Assay for H2AX Phosphorylation (AID 2282916); conditions: imaging, actives raise or lower the signal;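 also: phospho-histone H2A.x immunostain intensity per cell marking DNA damage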
Activity calls are given as the source filed them. The calls were made as follows: active = hit-call score of the fitted dose curve at least 0.9, where 1 is the maximum; inactive = score below 0.9.
measurement_label: AC50

Before answering, review these 4 worked examples.
QUERY: So what's the measured AC50 for this one? `Cc1ccc(C)c(O)c1`
RESULT: inactive

QUERY: What about this compound? O=c1n(CC2CO2)c(=O)n(CC2CO2)c(=O)n1CC1CO1 (stereo unspecified)
RESULT: 15.2 µM (active)

QUERY: Entry to check: `C=CCCCCCCCCC(=O)O`
RESULT: inactive

QUERY: What about this compound? `Cc1c(-c2cccnc2)c2ccccc2n1CCCCC(=O)O`
RESULT: inactive

Next:
QUERY: Item under review: `COCCOc1cc2cc(C(=O)NC3CCN(C(C)C)CC3)n(CC(=O)Nc3ccc(Cl)cn3)c2cn1` . Reported AC50?
RESULT: inactive

QUERY: Follow-up entry: `Cc1[nH]cnc1C[C@H]1CCc2c(C)c3ccccc3n2C1=O`
RESULT: 89 µM (active)

QUERY: Same thing, different compound: `O=C(OC[C@H]1O[C@@H](OC(=O)c2cc(O)c(O)c(OC(=O)c3cc(O)c(O)c(O)c3)c2)[C@H](OC(=O)c2cc(O)c(O)c(OC(=O)c3cc(O)c(O)c(O)c3)c2)[C@@H](OC(=O)c2cc(O)c(O)c(OC(=O)c3cc(O)c(O)c(O)c3)c2)[C@@H]1OC(=O)c1cc(O)c(O)c(OC(=O)c2cc(O)c(O)c(O)c2)c1)c1cc(O)c(O)c(OC(=O)c2cc(O)c(O)c(O)c2)c1`
RESULT: inactive

QUERY: One more compound: `CCCCCCCCCCCCc1ccccc1`
RESULT: inactive

QUERY: Then what about the compound `O=C(NS(=O)(=O)/C=C/c1ccccc1)c1ccc(F)cc1Cl` ?
RESULT: inactive

QUERY: Subsequent entry: `Cn1c(=O)c2c(ncn2C)n(C)c1=O`
RESULT: inactive
